assay: Mice PK study; assay type: in vivo, Balb/c mice; conditions: male, Balb/c, mouse, plasma, 2 mg/kg, IV
MEASURED_ATTRIBUTE: half-life (h)

INSERT INTO results (compound, measured_attribute, recorded_measurement) VALUES
  ('Cc1c(-c2cc3ccccc3n2Cc2ccc(F)cc2)nc2cc(C(=O)N3CCC[C@@H](N)C3)ccn12 [JBI-589]', 'half-life', 8);

###

target: CYP2C9 (Homo sapiens); construct: from tissue; host or cells: human liver microsomes; assay: CYP inhibition in human liver microsome, CYP2C9; type: in vitro ADME; conditions: human liver microsomes; 10 µM, human liver microsome; read-out: CYP2C9 inhibition (% inh @10 µM)
Sequence (P11712 whole entry): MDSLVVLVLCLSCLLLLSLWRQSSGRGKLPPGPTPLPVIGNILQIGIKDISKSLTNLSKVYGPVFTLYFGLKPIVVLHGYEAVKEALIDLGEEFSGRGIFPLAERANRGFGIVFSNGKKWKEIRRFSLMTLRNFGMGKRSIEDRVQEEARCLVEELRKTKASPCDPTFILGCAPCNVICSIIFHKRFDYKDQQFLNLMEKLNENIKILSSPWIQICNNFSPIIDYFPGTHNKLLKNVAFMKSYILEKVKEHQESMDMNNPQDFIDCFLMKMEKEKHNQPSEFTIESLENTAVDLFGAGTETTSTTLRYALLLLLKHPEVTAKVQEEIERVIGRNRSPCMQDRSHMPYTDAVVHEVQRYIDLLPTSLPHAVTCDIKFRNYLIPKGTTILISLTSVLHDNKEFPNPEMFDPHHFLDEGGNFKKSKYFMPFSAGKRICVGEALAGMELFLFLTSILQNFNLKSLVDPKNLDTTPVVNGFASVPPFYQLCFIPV
MEASURED_ATTRIBUTE: inhibition at 10 min, 10 µM

INSERT INTO results (compound, measured_attribute, recorded_measurement) VALUES
  ('Cc1c(-c2cc3ccccc3n2Cc2ccc(F)cc2)nc2cc(C(=O)N3CCC[C@@H](N)C3)ccn12 [JBI-589]', 'inhibition at 10 min, 10 µM', '< 50%');

###

experiment: Rat pharmacokinetics; conditions: in vivo, 10 mg/Kg, PO, dose not given
MEASURED_ATTRIBUTE: AUC(0-inf)

INSERT INTO measurements (molecule, recorded_measurement) VALUES
  ('Cc1c(-c2cc3ccccc3n2Cc2ccc(F)cc2)nc2cc(C(=O)N3CCC[C@@H](N)C3)ccn12 [JBI-589]', '3580 ng·h/mL');

###

assay: Rat pharmacokinetics; details: in vivo, 10 mg/Kg, PO, dose not given
MEASURED_ATTRIBUTE: Cmax (ng/mL)

INSERT INTO results (molecule, quantity_unit, recorded_measurement) VALUES
  ('Cc1c(-c2cc3ccccc3n2Cc2ccc(F)cc2)nc2cc(C(=O)N3CCC[C@@H](N)C3)ccn12 [JBI-589]', 'ng/mL', 335);

###

molecular target: CYP1A2 (Homo sapiens); construct: from tissue; host or cells: human liver microsomes; experiment: CYP inhibition in human liver microsome, CYP1A2; format: in vitro ADME; conditions: human liver microsomes; 10 µM, human liver microsome; read-out: CYP1A2 inhibition (% inh @10 µM)
Sequence (P05177 whole entry): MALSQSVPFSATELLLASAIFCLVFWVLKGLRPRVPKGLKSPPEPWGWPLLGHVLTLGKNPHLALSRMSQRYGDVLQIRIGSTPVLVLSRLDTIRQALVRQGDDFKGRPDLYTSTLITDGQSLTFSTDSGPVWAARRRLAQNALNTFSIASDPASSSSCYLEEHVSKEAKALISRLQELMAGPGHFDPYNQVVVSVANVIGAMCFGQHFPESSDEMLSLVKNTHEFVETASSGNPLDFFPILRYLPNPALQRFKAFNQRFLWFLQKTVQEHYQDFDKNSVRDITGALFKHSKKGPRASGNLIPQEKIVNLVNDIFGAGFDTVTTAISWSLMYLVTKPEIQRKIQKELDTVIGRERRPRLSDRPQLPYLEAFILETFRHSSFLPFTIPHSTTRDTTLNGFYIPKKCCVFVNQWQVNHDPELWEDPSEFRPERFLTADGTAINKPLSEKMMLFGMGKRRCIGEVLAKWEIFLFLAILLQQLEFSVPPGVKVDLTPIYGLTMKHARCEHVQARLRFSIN
MEASURED_ATTRIBUTE: inhibition at 10 min, 10 µM

INSERT INTO results (test_smiles, recorded_measurement) VALUES
  ('Cc1c(-c2cc3ccccc3n2Cc2ccc(F)cc2)nc2cc(C(=O)N3CCC[C@@H](N)C3)ccn12', '< 50%');

###

test: Rat pharmacokinetics; settings: in vivo, 10 mg/Kg, PO, dose not given
MEASURED_ATTRIBUTE: AUC(0-t) (ng·h/mL)

INSERT INTO assay_data (test_smiles, measured_attribute, quantity_unit, recorded_measurement) VALUES
  ('Cc1c(-c2cc3ccccc3n2Cc2ccc(F)cc2)nc2cc(C(=O)N3CCC[C@@H](N)C3)ccn12', 'AUC(0-t)', 'ng·h/mL', 3390);

###

assay: Mice PK study; assay type: in vivo, Balb/c mice; settings: male, Balb/c, mouse, plasma, 10 mg/kg, PO
Description: […]
MEASURED_ATTRIBUTE: AUC(0-inf) (ng·h/mL)

INSERT INTO results (test_smiles, quantity_unit, recorded_measurement) VALUES
  ('Cc1c(-c2cc3ccccc3n2Cc2ccc(F)cc2)nc2cc(C(=O)N3CCC[C@@H](N)C3)ccn12', 'ng·h/mL', 13500);

###

assay: Rat pharmacokinetics; details: in vivo, 2 mg/Kg, IV, dose not given
MEASURED_ATTRIBUTE: AUC(0-inf) (ng·h/mL)

INSERT INTO results (test_smiles, measured_attribute, recorded_measurement) VALUES
  ('Cc1c(-c2cc3ccccc3n2Cc2ccc(F)cc2)nc2cc(C(=O)N3CCC[C@@H](N)C3)ccn12', 'AUC(0-inf)', 1390);

###

target: CYP2D6 (Homo sapiens)
pIC50: −log10 of the molar value.
MEASURED_ATTRIBUTE: pIC50

INSERT INTO measurements (compound, measured_attribute, recorded_measurement) VALUES
  ('Cc1c(-c2cc3ccccc3n2Cc2ccc(F)cc2)nc2cc(C(=O)N3CCC[C@@H](N)C3)ccn12 [JBI-589]', 'pIC50', '< 5.00');

###

Target: CYP2D6 (Homo sapiens, UniProt P10635)
Construct: from tissue; host or cells: human liver microsomes
Sequence (P10635 whole entry): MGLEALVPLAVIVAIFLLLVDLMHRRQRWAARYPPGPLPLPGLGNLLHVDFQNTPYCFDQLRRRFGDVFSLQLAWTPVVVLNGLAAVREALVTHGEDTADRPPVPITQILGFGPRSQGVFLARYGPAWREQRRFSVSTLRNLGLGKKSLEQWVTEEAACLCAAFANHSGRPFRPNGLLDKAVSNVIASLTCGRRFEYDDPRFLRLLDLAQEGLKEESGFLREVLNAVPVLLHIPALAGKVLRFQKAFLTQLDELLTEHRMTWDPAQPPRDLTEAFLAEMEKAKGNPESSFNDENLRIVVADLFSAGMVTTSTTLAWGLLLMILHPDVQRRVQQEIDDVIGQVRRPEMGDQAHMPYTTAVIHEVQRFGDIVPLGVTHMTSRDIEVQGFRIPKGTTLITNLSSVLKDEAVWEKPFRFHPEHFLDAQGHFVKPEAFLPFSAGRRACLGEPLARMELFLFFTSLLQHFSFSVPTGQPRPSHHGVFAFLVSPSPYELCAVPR
Experiment: CYP inhibition in human liver microsome, CYP2D6
Format: in vitro ADME
Settings: human liver microsomes; 10 µM, human liver microsome; read-out: CYP2D6 inhibition (% inh @10 µM)
Experimental: CYP inhibition: Human liver microsome (0.1–0.5 mg/mL for various CYPs) and appropriate probe substrates (2.5–20 µM) were incubated in potassium phosphate buffer with or without JBI-589 for 5 min at 37 °C. The reaction was initiated by addition of NADPH (1 mM), incubated at 37 °C for 10 min and quenched (0.5% Formic acid in internal standard (IS) containing ACN). Samples were then centrifuged and taken for LC–MS/MS analysis. […]
MEASURED_ATTRIBUTE: inhibition at 10 min, 10 µM

INSERT INTO assay_data (test_smiles, target_or_test_system, measured_attribute, recorded_measurement) VALUES
  ('Cc1c(-c2cc3ccccc3n2Cc2ccc(F)cc2)nc2cc(C(=O)N3CCC[C@@H](N)C3)ccn12', 'CYP2D6 (Homo sapiens, UniProt P10635)', 'inhibition at 10 min, 10 µM', '< 50%');

###

assay: Mice PK study; type: in vivo, Balb/c mice; settings: male, Balb/c, mouse, plasma, 2 mg/kg, IV
MEASURED_ATTRIBUTE: AUC(0-inf)

INSERT INTO measurements (test_smiles, measured_attribute, recorded_measurement) VALUES
  ('Cc1c(-c2cc3ccccc3n2Cc2ccc(F)cc2)nc2cc(C(=O)N3CCC[C@@H](N)C3)ccn12', 'AUC(0-inf)', '4380 ng·h/mL');

###

assay: Rat pharmacokinetics; settings: in vivo, 10 mg/Kg, PO, dose not given
MEASURED_ATTRIBUTE: half-life

INSERT INTO results (compound, measured_attribute, recorded_measurement) VALUES
  ('Cc1c(-c2cc3ccccc3n2Cc2ccc(F)cc2)nc2cc(C(=O)N3CCC[C@@H](N)C3)ccn12 [JBI-589]', 'half-life', '5.6 h');

###

assay: Rat pharmacokinetics; conditions: in vivo, 10 mg/Kg, PO, dose not given
MEASURED_ATTRIBUTE: bioavailability (%)

INSERT INTO measurements (test_smiles, measured_attribute, recorded_measurement) VALUES
  ('Cc1c(-c2cc3ccccc3n2Cc2ccc(F)cc2)nc2cc(C(=O)N3CCC[C@@H](N)C3)ccn12', 'bioavailability', 51.4);

###

test: Mice PK study; assay type: in vivo, Balb/c mice; conditions: male, Balb/c, mouse, plasma, 2 mg/kg, IV
MEASURED_ATTRIBUTE: C0

INSERT INTO assay_data (compound, measured_attribute, recorded_measurement) VALUES
  ('Cc1c(-c2cc3ccccc3n2Cc2ccc(F)cc2)nc2cc(C(=O)N3CCC[C@@H](N)C3)ccn12 [JBI-589]', 'C0', '968 ng/mL');

###

assay: Rat pharmacokinetics; conditions: in vivo, 2 mg/Kg, IV, dose not given
MEASURED_ATTRIBUTE: Vd

INSERT INTO assay_data (test_smiles, recorded_measurement) VALUES
  ('Cc1c(-c2cc3ccccc3n2Cc2ccc(F)cc2)nc2cc(C(=O)N3CCC[C@@H](N)C3)ccn12', '13.2 L/kg');
